Target: mouse glycine N-acyltransferase (mGLYAT) (Mus musculus)
Sequence (Q91XE0 whole entry): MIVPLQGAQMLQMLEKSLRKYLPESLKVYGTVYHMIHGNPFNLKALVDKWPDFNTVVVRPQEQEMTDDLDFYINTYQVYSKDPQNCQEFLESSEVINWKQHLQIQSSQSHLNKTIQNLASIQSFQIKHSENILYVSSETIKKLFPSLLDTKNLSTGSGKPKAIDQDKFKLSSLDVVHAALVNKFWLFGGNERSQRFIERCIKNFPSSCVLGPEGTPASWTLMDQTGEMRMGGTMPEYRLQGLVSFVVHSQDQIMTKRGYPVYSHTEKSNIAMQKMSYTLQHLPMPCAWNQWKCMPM
observed.property: pIC50
The scale used: pIC50 is minus the common logarithm of the concentration in molar units.

{"chemical.structure": "O=C(O)CO", "pIC50": 1.24}

Shift focus to the following entry.
Lab note: molecule CCCCCCCC/C=C\CCCCCCCC(=O)SCCNC(=O)CCNC(=O)[C@H](O)C(C)(C)COP(=O)(O)OP(=O)(O)OC[C@H]1O[C@@H](n2cnc3c(N)ncnc32)[C@H](O)[C@@H]1OP(=O)(O)O tested on mouse glycine N-acyltransferase (mGLYAT) (Mus musculus); recorded pIC50 was 4.68

Where do the numbers come from? From paper PMC3985065.
